Test system: P388 leukemia
protocol: Antitumor test: survival of CDF1 mice inoculated intraperitoneally with P388 leukemia
Assay type: in vivo
conditionInfo: Mus musculus, ip, 200 mg/kg/day, i.p., 24 hours and 5 days after inoculation, 10^6 P388 i.p., read-out: Survival Effect (survival days of treated relative to control animals)
readoutLabel: response vs control in vivo at 200 mg/kg (%)
Dear colleague, please return just the value in %, with no unit written.

Observe how each entry below is paired with its result.
compound	response vs control in vivo at 200 mg/kg / %
CSCCC(N)C(=O)Nc1nncs1 (centres unmarked)	121
N[C@@H](Cc1ccccc1)C(=O)Nc1nncs1	145
CC(C)C[C@H](N)C(=O)Nc1nncs1	144
CC(C)CC(N)C(=O)Nc1nncs1 (centres unmarked)	141
CC(C)[C@@H](N)C(=O)Nc1nncs1	93
N[C@@H](Cc1c[nH]c2ccccc12)C(=O)Nc1nncs1	143

Any idea what response vs control in vivo at 200 mg/kg was measured for CCC(C)C(N)C(=O)Nc1nncs1 (centres unmarked) ?
157

Any idea what response vs control in vivo at 200 mg/kg was measured for CC(C)[C@H](N)C(=O)Nc1nncs1 ?
183

Any idea what response vs control in vivo at 200 mg/kg was measured for CC(C)C[C@@H](N)C(=O)Nc1nncs1 ?
116

Any idea what response vs control in vivo at 200 mg/kg was measured for CC(C)C(N)C(=O)Nc1nncs1 (centres unmarked) ?
143

Any idea what response vs control in vivo at 200 mg/kg was measured for NC(C(=O)Nc1nncs1)c1ccccc1 (centres unmarked) ?
125

###

protocol: Acute toxicity (LD50, Litchfield-Wilcoxon method) after intraperitoneal injection in ddy mice
conditionInfo: mouse, in vivo, ip
readoutLabel: LD50

molecule	LD50
CC(C)C[C@@H](N)C(=O)Nc1nncs1 [C]	> 500 mg/kg
CC(C)C[C@H](N)C(=O)Nc1nncs1 [B]	> 500 mg/kg
CCC(C)C(N)C(=O)Nc1nncs1 (stereo not shown) [D]	357 mg/kg

Any idea what LD50 was measured for N[C@@H](CC(=O)O)C(=O)Nc1nncs1 [K] ?
> 1600 mg/kg

###

// values below are reported LD50
protocol: Acute toxicity (LD50, Litchfield-Wilcoxon method) after intraperitoneal injection in ddy mice
conditionInfo: mouse, in vivo, ip

Any idea what LD50 was measured for NC1(C(=O)Nc2nncs2)CCCC1 ?
165 mg/kg

Any idea what LD50 was measured for CSCCC(N)C(=O)Nc1nncs1 (stereo not shown) ?
> 1600 mg/kg

Any idea what LD50 was measured for CC(C)C(N)C(=O)Nc1nncs1 (stereo not shown) ?
> 1600 mg/kg

Any idea what LD50 was measured for CC(C)[C@H](N)C(=O)Nc1nncs1 ?
> 500 mg/kg

Any idea what LD50 was measured for CC(C)CC(N)C(=O)Nc1nncs1 (stereo not shown) ?
> 1600 mg/kg

Any idea what LD50 was measured for NC(C(=O)Nc1nncs1)c1ccccc1 (stereo not shown) ?
> 1600 mg/kg

Any idea what LD50 was measured for CC(C)[C@@H](N)C(=O)Nc1nncs1 ?
> 500 mg/kg

###

// values below are reported LD50
protocol: Acute toxicity (LD50, Litchfield-Wilcoxon method) after intraperitoneal injection in ddy mice
conditionInfo: mouse, in vivo, ip; intraperitoneal, ddy mice; read-out: Acute Toxicity LD50
Dear colleague, please return just the value in mg/kg, with no unit written.

structureAsSmiles	unitTag	LD50
N[C@@H](Cc1c[nH]c2ccccc12)C(=O)Nc1nncs1	mg/kg	1200

Here is the next item to consider.
Any idea what LD50 was measured for N[C@@H](Cc1ccccc1)C(=O)Nc1nncs1 ?
1200
